experimental-protocol: protease stability score; higher = more stable; yeast display proteolysis, trypsin and chymotrypsin;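 also: log10 excess protease needed over predicted unfolded state with 0 meaning unfolded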
outcome-measure: protease stability score
In your answer, state the number alone without any accompanying words.

input: Consider the sequence shown here: "DEEVKDFAEKMLKNWHTGNWQHFAKLLDENAKIVIGDKRYHGTENFERMADSIQKQMSIRIESMSVEVHGEKAKFSATVVENHNGNPTRFHISAEVTVRGDKVDHFNQQNDS" What is its recorded protease stability score?
output: 1.04

input: Please look up its protease stability score: "DENQVDQLKELMDALQNNDERKANDLADKNARIRIGDKDVSGRSDMNRMVRELHERIRFTIRTVELHHQGDKVIAKVKVEMDHNGKPNDVTQNAEAKYHNGHLQRLFFDTRS"
output: -0.433

input: Which measured protease stability score value corresponds to "DEEDMQRFFKEFLKAQETGDPDEIRRQMDPNARAHVGDKEYHGREQVAKMFRDVRERVDRIRIESVDIQGNKANVDVTYNVNGRKARINVTLKAHNGRFKEMHFNPEDTKEMEK" ?
output: 0.033

input: Look up protease stability score: "DQDQMRKAEQAMRAEQKNNKEELDELFDPNVEVEVGDFNVEGREEMNKEVDDLKKQARFHWSLHHVEVRGNRMHFKLRFEIQVNGQPRKNTANVEIEAHNGKFTSKTNRIDPRFVKTLLG"
output: 0.55

input: Reported protease stability score, sequence "DEKRYKELADKAFKYIVNGNEEQAIKMLKPNVRYEYVDKEMKGEEAAKEIVQLMQKVGAKVETQEKEVHGDTMRAVFQYHDGDTTVQTTAEVVYKGDKVEKVRVEISEEVKKIVERG" : ____
output: -0.265

----------
experimental-protocol: protease stability score; higher = more stable; yeast display proteolysis, trypsin and chymotrypsin;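 also: log10 excess protease needed over predicted unfolded state with 0 meaning unfolded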
Provide the reported protease stability score of each item.

input: Data request, read-out protease stability score, for "DEDEDKRIQEVLEQNDFETLSKQADENAKVQYGDTEVHGRRKAYEYLRRLKRSIDHIHYHSIHVHNGRAKMTAEAHFNGRKAVFIVVLQFENGRIRMVVFRATDSRIKKIIKEALN"
output: 0.988

input: // returns reported protease stability score for input "KEEDVEKVAKRLITLVQEGNVDVMRKYLAPDVEVQYGDVEVKGPDQVVKHVRDLRRQGYRVQLKEVQVEGNTAETVLDYQAGDQKYTATVKAQVKGGVLKRATVKASPEMKKVVKAG"
output: 1.38

input: Report protease stability score for "DDENMSAFERWLHAVETGNPQKVKEQMDENAKLDVGEKDVTGMDEIRRQLEKEMKRMRVTIQRYDLQVHNGQVVVRQTVVNKNDGQPRRRTNVVHVDIRNGRIQRIIQRDDG" please.
output: 0.42

input: Look at this sequence and give its reported protease stability score. "EEELQKKASEFIRLQQKGDSEEVMKNVDPNARINVGDKVYDGREQLAKDLHRSKRESRMHFDLKSISVENGKVDVRARMHVVENGQPRRFRVRIIFHQENGRITHFQYHTDD"
output: 0.258

input: Bench note: what protease stability score did "DEELQKMVEQFFRNEQNGNRDQLKRLADPNVNFQYGDKTIHGMDTFLQRQRERHEDSRQDFKSIDMKVQGDKVRVTAVLEQETDGQPERFRREMTVEAHNGKIKSVNVQHSQ" show?
output: -0.082

input: For the sequence "DSRAVHLAKNFMSALKTGDHDRARDNLDKDARISIGDKVWHGMDEAVHDIKREKEEMRIEFRKVDAKDSNGKVRMDADVVFNHDGRPDKFRLDADIEVHNGRIHVLDVENSK" , what protease stability score is on record?
output: 0.264

Hello, the source for this data is the NTF2 design screens of Basanta et al. (2020), in case you need it.
